Where these numbers come from: paper PMC5493697

Substrate: CC(=O)Oc1ccc([N+](=O)[O-])cc1
Protocol Description: purified protein
Assay type: biochemical, Pelagibacterium halotolerans
Experimental Parameters: 100 mM Tris-HCl pH 7.5, 30 °C, 0.05-4 mM substrate in acetonitrile

Protein	Km [µM]
PE8 (Pelagibacterium halotolerans B2; V172A) (protein, 6xHis fusion from pET28b in E. coli Rosetta (DE3), Ni-NTA and SEC; monomer; catalytic triad Ser118, Asp169, His201) MTEPVKLSGPMLPAVSGAAKSLVVLLHGYGSDGRDLIALGQFWRDSFPDTMFVAPNAPHVCGGNPFGYEWFPLDLERDRTLARLAGAETAHPVLDAFLADLWAQTGLGPADTILVGFSQGAMMALYTGLRLPEPLKAIIAFSGLIVAPEKLEAEIASKPPVLLIHGDLDDVAPVIGSETALPKLIDLGIDARLHISQGSGHTIAQDGLDTATAFLREIL	500
PE8 (Pelagibacterium halotolerans B2; V171A) (protein, 6xHis fusion from pET28b in E. coli Rosetta (DE3), Ni-NTA and SEC; monomer; catalytic triad Ser118, Asp169, His201) MTEPVKLSGPMLPAVSGAAKSLVVLLHGYGSDGRDLIALGQFWRDSFPDTMFVAPNAPHVCGGNPFGYEWFPLDLERDRTLARLAGAETAHPVLDAFLADLWAQTGLGPADTILVGFSQGAMMALYTGLRLPEPLKAIIAFSGLIVAPEKLEAEIASKPPVLLIHGDLDDAVPVIGSETALPKLIDLGIDARLHISQGSGHTIAQDGLDTATAFLREIL	890
PE8 (Pelagibacterium halotolerans B2; S118A) (protein, 6xHis fusion from pET28b in E. coli Rosetta (DE3), Ni-NTA and SEC; monomer; catalytic triad Ser118, Asp169, His201) MTEPVKLSGPMLPAVSGAAKSLVVLLHGYGSDGRDLIALGQFWRDSFPDTMFVAPNAPHVCGGNPFGYEWFPLDLERDRTLARLAGAETAHPVLDAFLADLWAQTGLGPADTILVGFAQGAMMALYTGLRLPEPLKAIIAFSGLIVAPEKLEAEIASKPPVLLIHGDLDDVVPVIGSETALPKLIDLGIDARLHISQGSGHTIAQDGLDTATAFLREIL	540
